B1: Pistol ribozyme (parent)
chain: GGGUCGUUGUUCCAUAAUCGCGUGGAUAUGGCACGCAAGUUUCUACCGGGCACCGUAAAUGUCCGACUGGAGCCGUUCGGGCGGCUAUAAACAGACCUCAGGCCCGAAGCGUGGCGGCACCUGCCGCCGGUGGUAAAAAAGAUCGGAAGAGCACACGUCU

# Variants of: B1
# ASSAY COMMENT: aptazyme ON/OFF ratio, guanine; higher = stronger switching; co-transcriptional cleavage with and without guanine
PROPERTY: aptazyme ON/OFF ratio
Answer field: number only, no words.

Known results for variants:
1) U7C U8G U10G U11G C13A; 1.21
2) U7C U8C G9U C12G C13G; 1.12
3) U8C G9A C12G C13U; 1.26
4) U7A U11C C12G C13G; 1.16

What does the record list as aptazyme ON/OFF ratio for U7A U8G G9A U10A U11A C12A C13A ?
1.3

Could you do the same for G9U U10C U11C C12U C13U , please?
1.18

Could you do the same for U7C U8A G9C U11C C12U C13A , please?
1.11

Could you do the same for U8G U10G U11A C12A , please?
1.18

Could you do the same for U8G G9C U10C C12U C13G , please?
1.05

Could you do the same for U7A G9A U10C U11G , please?
1.31

Could you do the same for U7A G9U U10A U11G C13A , please?
1.11
